Hi there, I'd appreciate the recorded AC50 for every entry that follows.
- testTarget: Estrogen receptor (Homo sapiens, UniProt P03372); further: assay procedure not described here
- Sequence (P03372 whole entry): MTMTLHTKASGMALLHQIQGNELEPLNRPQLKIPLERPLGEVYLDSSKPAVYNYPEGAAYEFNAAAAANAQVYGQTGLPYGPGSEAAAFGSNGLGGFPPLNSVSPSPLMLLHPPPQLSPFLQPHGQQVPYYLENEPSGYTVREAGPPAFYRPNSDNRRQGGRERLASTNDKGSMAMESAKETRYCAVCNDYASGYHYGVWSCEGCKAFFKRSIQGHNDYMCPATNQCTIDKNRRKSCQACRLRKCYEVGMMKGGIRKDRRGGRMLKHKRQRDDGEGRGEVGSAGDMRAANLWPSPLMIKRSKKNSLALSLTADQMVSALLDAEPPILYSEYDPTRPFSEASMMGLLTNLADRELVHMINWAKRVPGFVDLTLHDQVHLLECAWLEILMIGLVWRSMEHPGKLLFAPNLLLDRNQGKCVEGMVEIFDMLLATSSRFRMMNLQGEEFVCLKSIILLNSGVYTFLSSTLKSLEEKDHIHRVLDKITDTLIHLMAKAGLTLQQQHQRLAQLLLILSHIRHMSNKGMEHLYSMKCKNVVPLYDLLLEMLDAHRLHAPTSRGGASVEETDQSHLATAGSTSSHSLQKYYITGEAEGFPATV
- Assay type: functional

Study these solved cases before continuing.
compound	AC50
O=C(O)[C@H]1/C(=C/CO)O[C@@H]2CC(=O)N21	> 30 µM
C[C@@H](O)[C@H]1C(=O)N2C(C(=O)O)=C(SCCN=CN)C[C@H]12 [IMIPENEM ANHYDROUS]	> 300 µM
CCCCCCOC(=O)NC(=N)c1ccc(NCc2nc3cc(C(=O)N(CCC(=O)OCC)c4ccccn4)ccc3n2C)cc1 [DABIGATRAN ETEXILATE]	> 30 µM
CN1CC2c3ccccc3Oc3ccc(Cl)cc3C2C1 (stereo not drawn)	> 30 µM
COc1cccc2c1C(=O)c1c(O)c3c(c(O)c1C2=O)C[C@@](O)(C(=O)CO)C[C@@H]3O[C@H]1C[C@H](N)[C@H](O)[C@H](C)O1	> 3 µM

Could you tell me AC50 for each of these compounds? They are listed below.
1. COC(=O)c1ccc2c(c1)NC(=O)/C2=C(\Nc1ccc(N(C)C(=O)CN2CCN(C)CC2)cc1)c1ccccc1
2. Cn1cnc2c(F)c(Nc3ccc(Br)cc3F)c(C(=O)NOCCO)cc21
3. COc1ccc(-n2nc(C(N)=O)c3c2C(=O)N(c2ccc(N4CCCCC4=O)cc2)CC3)cc1
4. C[C@H](Nc1ncnc2[nH]cnc12)c1cc2cccc(Cl)c2c(=O)n1-c1ccccc1

RESULT:
1. > 10 µM
2. > 30 µM
3. > 30 µM
4. > 30 µM
